Consider the following molecules and their measured MIC90 readings.
# System: P. aeruginosa 37
# PROTOCOL_DETAILS: In vitro antibacterial activity test (broth microdilution)
# Format: cell-based
# CONDITION_LABEL: Pseudomonas aeruginosa, 37, P. aeruginosa 37
Please state the value followed by its unit.

Some entries whose results are on file:
MOLECULE	TARGET_ENTITY	RESULT
CC(C)(O/N=C(\C(=O)N[C@@H]1C(=O)N2C(C(=O)[O-])=C(/C=C/C[n+]3cnc(N)c(NC(=O)CCCN)c3)CSC12)c1nsc(N)n1)C(=O)O (stereo partly drawn)	P. aeruginosa 37	32 µg/mL
CC(C)(O/N=C(\C(=O)N[C@@H]1C(=O)N2C(C(=O)[O-])=C(/C=C/C[n+]3cnc(N)c(NC(=O)CCCN)c3)CSC12)c1nc(N)sc1Cl)C(=O)O (stereo partly drawn)	P. aeruginosa 37	16 µg/mL
CC(C)(O/N=C(\C(=O)N[C@@H]1C(=O)N2C(C(=O)[O-])=C(/C=C/C[n+]3cnc(N)c(NC(=O)CCN)c3N)CSC12)c1csc(N)n1)C(=O)O (stereo partly drawn)	P. aeruginosa 37	16 µg/mL
C[C@H](O/N=C(\C(=O)N[C@@H]1C(=O)N2C(C(=O)[O-])=C(/C=C/C[n+]3cnc(N)c(NCCN)c3)CSC12)c1csc(N)n1)C(=O)O (stereo partly drawn)	P. aeruginosa 37	16 µg/mL

Query string: Returns the measured MIC90 for the input molecule. Input: CC(C)(O/N=C(\C(=O)N[C@@H]1C(=O)N2C(C(=O)[O-])=C(/C=C/C[n+]3cnc(N)c(NC(=O)CCCN)c3)CSC12)c1csc(N)n1)C(=O)O (stereo partly drawn)
Result string: 32 µg/mL

Query string: Returns the measured MIC90 for the input molecule. Input: CC(C)(O/N=C(\C(=O)N[C@@H]1C(=O)N2C(C(=O)[O-])=C(/C=C/C[n+]3cnc(N)c(NCCCN)c3)CSC12)c1nsc(N)n1)C(=O)O (stereo partly drawn)
Result string: 8 µg/mL

* * *

# System: M. catarrhalis 2524
# PROTOCOL_DETAILS: In vitro antibacterial activity test (broth microdilution)
# Assay type: cell-based
# CONDITION_LABEL: Moraxella catarrhalis; M. catarrhalis 2524; read-out: MIC90
MEASURED_ENDPOINT: MIC90 (µg/mL)
Give the quantity in µg/mL, number only.

COMPOUND	MEASURED_ENDPOINT	NUMERIC_RESULT
CC(C)(O/N=C(\C(=O)N[C@@H]1C(=O)N2C(C(=O)[O-])=C(/C=C/C[n+]3cnc(N)c(NCCCCNC(=O)c4cc(=O)c(O)cn4O)c3)CSC12)c1csc(N)n1)C(=O)O (stereo partly drawn)	MIC90	0.25

Attention now turns to another entry.
Query string: Returns the measured MIC90 for the input compound. Input: C[C@H](O/N=C(\C(=O)N[C@@H]1C(=O)N2C(C(=O)[O-])=C(C[n+]3cnc(N)c(NCCNC(=O)c4cc(=O)c(O)cn4O)c3)CSC12)c1csc(N)n1)C(=O)O (stereo partly drawn)
Result string: 2

* * *

# System: P. aeruginosa 6065Y
# PROTOCOL_DETAILS: In vitro antibacterial activity test (broth microdilution)
# Assay type: cell-based
# CONDITION_LABEL: Pseudomonas aeruginosa, read-out: MIC90
MEASURED_ENDPOINT: MIC90 (µg/mL)
Give the quantity in µg/mL, number only.

MOLECULE	TARGET_ENTITY	OUTPUT_UNIT	MIC90
CN(CCNc1c[n+](CC2=C(C(=O)[O-])N3C(=O)[C@@H](NC(=O)/C(=N\OC(C)(C)C(=O)O)c4csc(N)n4)C3SC2)cnc1N)Cc1ccc(O)c(O)c1 (some centres unmarked)	P. aeruginosa 6065Y	µg/mL	8
Cn1cc(O)c(=O)cc1C(=O)NCCNc1c[n+](CC2=C(C(=O)[O-])N3C(=O)[C@@H](NC(=O)/C(=N\OC(C)(C)C(=O)O)c4csc(N)n4)C3SC2)cnc1N (some centres unmarked)	P. aeruginosa 6065Y	µg/mL	16
CC(C)(O/N=C(\C(=O)N[C@@H]1C(=O)N2C(C(=O)[O-])=C(/C=C/C[n+]3cnc(N)c(NCCCCNC(=O)c4cc(=O)c(O)cn4O)c3)CSC12)c1csc(N)n1)C(=O)O (some centres unmarked)	P. aeruginosa 6065Y	µg/mL	2
CC(C)(O/N=C(\C(=O)N[C@@H]1C(=O)N2C(C(=O)[O-])=C(/C=C/C[n+]3cnc(N)c(NC(=O)c4cc(=O)c(O)cn4O)c3)CSC12)c1csc(N)n1)C(=O)O (some centres unmarked)	P. aeruginosa 6065Y	µg/mL	2

Query string: Returns the measured MIC90 for the input molecule. Input: CC(C)(O/N=C(\C(=O)N[C@@H]1C(=O)N2C(C(=O)[O-])=C(C[n+]3cnc(N)c(NCCNC(=O)c4cc(=O)c(O)cn4O)c3)CSC12)c1csc(N)n1)C(=O)O (some centres unmarked)
Result string: 1

Query string: Returns the measured MIC90 for the input molecule. Input: CC(C)(O/N=C(\C(=O)N[C@@H]1C(=O)N2C(C(=O)[O-])=C(/C=C/C[n+]3cnc(N)c(NCCNC(=O)c4cc(=O)c(O)cn4O)c3)CSC12)c1nc(N)sc1Cl)C(=O)O (some centres unmarked)
Result string: 0.5

Query string: Returns the measured MIC90 for the input molecule. Input: CC(C)(O/N=C(\C(=O)N[C@@H]1C(=O)N2C(C(=O)[O-])=C(C[n+]3cnc(N)c(NCCNC(=O)c4ccc(O)c(O)c4)c3)CSC12)c1csc(N)n1)C(=O)O (some centres unmarked)
Result string: 0.5

Query string: Returns the measured MIC90 for the input molecule. Input: C[C@H](O/N=C(\C(=O)N[C@@H]1C(=O)N2C(C(=O)[O-])=C(C[n+]3cnc(N)c(NCCNC(=O)c4ccc(O)c(O)c4)c3)CSC12)c1csc(N)n1)C(=O)O (some centres unmarked)
Result string: 1

Query string: Returns the measured MIC90 for the input molecule. Input: CC(C)(O/N=C(\C(=O)N[C@@H]1C(=O)N2C(C(=O)[O-])=C(/C=C/C[n+]3cnc(N)c(NCCNC(=O)c4cc(=O)c(O)cn4O)c3)CSC12)c1csc(N)n1)C(=O)O (some centres unmarked)
Result string: 4

Query string: Returns the measured MIC90 for the input molecule. Input: CC(C)(O/N=C(\C(=O)N[C@@H]1C(=O)N2C(C(=O)[O-])=C(/C=C/C[n+]3cnc(N)c(NCCNC(=O)c4cc(=O)c(O)cn4O)c3)CSC12)c1nsc(N)n1)C(=O)O (some centres unmarked)
Result string: 0.5

Query string: Returns the measured MIC90 for the input molecule. Input: CC(C)(O/N=C(\C(=O)N[C@@H]1C(=O)N2C(C(=O)[O-])=C(C[n+]3ccccc3)CS[C@H]12)c1csc(N)n1)C(=O)O [Ceftazidime, reference compound]
Result string: 32

* * *

# Tested on: A. baumannii 52
# PROTOCOL_DETAILS: In vitro antibacterial activity test (broth microdilution)
# Format: cell-based
# CONDITION_LABEL: A. baumannii 52
MEASURED_ENDPOINT: MIC90

Some entries whose results are on file:
COMPOUND	MEASURED_ENDPOINT	RESULT
CC(C)(O/N=C(\C(=O)N[C@@H]1C(=O)N2C(C(=O)[O-])=C(/C=C/C[n+]3cnc(N)c(NCCNC(=O)c4cc(=O)c(O)cn4O)c3)CSC12)c1csc(N)n1)C(=O)O (stereo partly drawn) [Compound 11]	MIC90	>128 µg/mL
CC(C)(O/N=C(\C(=O)N[C@@H]1C(=O)N2C(C(=O)[O-])=C(/C=C/C[n+]3cnc(N)c(NCCNC(=O)c4cc(=O)c(O)cn4O)c3)CSC12)c1csc(N)n1)C(=O)O (stereo partly drawn) [Compound 10]	MIC90	>128 µg/mL

Query string: Returns the measured MIC90 for the input compound. Input: CC(C)(ON=C(C(=O)NC1C(=O)N2C(C(=O)O)=C(C=CC[n+]3cnc(N)c(NC(=O)CCN)c3N)CSC12)c1csc(N)n1)C(=O)O.O=C([O-])C(F)(F)F (stereo not drawn) [Compound 45]
Result string: >128 µg/mL

* * *

# Test system: P. aeruginosa 6065Y
# PROTOCOL_DETAILS: In vitro antibacterial activity test (broth microdilution)
# Type: cell-based
# CONDITION_LABEL: Pseudomonas aeruginosa, 6065Y
Consider the following compounds and their measured MIC90 readings.
Give the quantity in µg/mL, number only.

Some entries whose results are on file:
COMPOUND	MIC90 (µg/mL)
CC(C)(O/N=C(\C(=O)N[C@@H]1C(=O)N2C(C(=O)[O-])=C(/C=C/C[n+]3cnc(N)c(NCCCN)c3)CSC12)c1nsc(N)n1)C(=O)O (stereo partly drawn)	16
CC(C)(O/N=C(\C(=O)N[C@@H]1C(=O)N2C(C(=O)[O-])=C(/C=C/C[n+]3cnc(N)c(NCCN)c3)CSC12)c1nc(N)sc1Cl)C(=O)O (stereo partly drawn)	16

Query string: Returns the measured MIC90 for the input compound. Input: CC(C)(O/N=C(\C(=O)N[C@@H]1C(=O)N2C(C(=O)[O-])=C(/C=C/C[n+]3cnc(N)c(NC(=O)CN)c3N)CSC12)c1csc(N)n1)C(=O)O (stereo partly drawn)
Result string: 16

Query string: Returns the measured MIC90 for the input compound. Input: CC(C)(O/N=C(\C(=O)N[C@@H]1C(=O)N2C(C(=O)[O-])=C(C[n+]3cnc(N)c(NCCNC(=N)N)c3)CSC12)c1csc(N)n1)C(=O)O (stereo partly drawn)
Result string: 16

Query string: Returns the measured MIC90 for the input compound. Input: CC(C)(O/N=C(\C(=O)N[C@@H]1C(=O)N2C(C(=O)[O-])=C(C[n+]3cnc(NCCCCN)c(NCCCCN)c3)CSC12)c1csc(N)n1)C(=O)O (stereo partly drawn)
Result string: 16

Query string: Returns the measured MIC90 for the input compound. Input: CC(C)(O/N=C(\C(=O)N[C@@H]1C(=O)N2C(C(=O)[O-])=C(/C=C/C[n+]3cnc(N)c(NC(=O)CCCN)c3)CSC12)c1nc(N)sc1Cl)C(=O)O (stereo partly drawn)
Result string: 32
